- TARGET_OR_SYSTEM: human GLP-1 receptor (human, UniProt P43220 24-463)
- EXPERIMENT_DESCRIPTION: cell-based or functional assay
*1 amine or outer side, *2 acyl side, *3 side chain or, on linkers, in order; H or OH if unused. Where no end group is shown, it is not given here. Side-chain parts run from the residue outwards. [ ]: non-standard residue; d: D form. The star is where a group is joined. C20 diacid = O=C(O)CCCCCCCCCCCCCCCCCCC(=O)*; γGlu = O=C(O)[C@H](CCC(=O)[*:2])N[*:1]; Aib = CC(C)(N)C(=O)O
READOUT_TYPE: EC50, CreLuc reporter, 0.5% hP (nM)
# number only, unit nM dropped from output

Inquiry: Return reported EC50, CreLuc reporter, 0.5% hP; argument: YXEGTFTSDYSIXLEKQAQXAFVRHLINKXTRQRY (Aib at 2, 13, 20, 30; ArgMe at 34; Lys29 epsilon-amino acylated with C18DA-gGlu-gGlu-gGlu-gGlu-gGlu-gGlu-eLys; C-terminal amide) [Compound 72]
Reply text: 0.6

Inquiry: Return reported EC50, CreLuc reporter, 0.5% hP; argument: YXEGTFTSDYSIXLDKQAQXAFIRHLINKXTRQRY (Aib at 2, 20, 30; aMeL at 13; Lys29 epsilon-amino acylated with C20DA-gGlu-gGlu-gGlu-gGlu-gGlu-gGlu-eLys; C-terminal amide) [Compound 22]
Reply text: 0.2

Inquiry: Return reported EC50, CreLuc reporter, 0.5% hP; argument: YXEGTFTSDYSIXLEKQAQXAFVRHLIAKXTRQRY (Aib at 2, 13, 20, 30; Lys29 epsilon-amino acylated with C18DA-gGlu-gGlu-gGlu-gGlu-gGlu-gGlu-eLys; C-terminal amide) [Compound 68]
Reply text: 0.6

Inquiry: Return reported EC50, CreLuc reporter, 0.5% hP; argument: Y[Aib]EGTFTSDYSI[Aib]LEKQAQ[Aib]AFVRHLINK([γGlu-γGlu-γGlu-γGlu-γGlu-γGlu-C20 diacid])[Aib]TRQRY-NH2 [Compound 3]
Reply text: 3

Inquiry: Return reported EC50, CreLuc reporter, 0.5% hP; argument: YXEGTFTSDYSIXLDKQAQXAFVRHLINKXTRQRY (Aib at 2, 13, 20, 30; Lys29 epsilon-amino acylated with C20DA-gGlu-gGlu-gGlu-gGlu-gGlu-gGlu-eLys; C-terminal amide) [Compound 74]
Reply text: 0.4

Inquiry: Return reported EC50, CreLuc reporter, 0.5% hP; argument: YXEGTFTSDYSIXLEKQAQXAFLRHLINKXTRQRY (Aib at 2, 13, 20, 30; Lys29 epsilon-amino acylated with C18DA-gGlu-gGlu-gGlu-gGlu-gGlu-gGlu-eLys; C-terminal amide) [Compound 37]
Reply text: 5.8
